target: unphosphorylated c-KIT kinase (uKIT, Seq. ID no. 2) (Homo sapiens); construct: uKit with N-terminal GST fusion used for screening; assay: uKit kinase enzymatic assay (pyruvate kinase/lactate dehydrogenase coupled); settings: ATP 2000 μM, rate 3 to 4 h
Sequence (P10721 with tags, fused parts or gaps): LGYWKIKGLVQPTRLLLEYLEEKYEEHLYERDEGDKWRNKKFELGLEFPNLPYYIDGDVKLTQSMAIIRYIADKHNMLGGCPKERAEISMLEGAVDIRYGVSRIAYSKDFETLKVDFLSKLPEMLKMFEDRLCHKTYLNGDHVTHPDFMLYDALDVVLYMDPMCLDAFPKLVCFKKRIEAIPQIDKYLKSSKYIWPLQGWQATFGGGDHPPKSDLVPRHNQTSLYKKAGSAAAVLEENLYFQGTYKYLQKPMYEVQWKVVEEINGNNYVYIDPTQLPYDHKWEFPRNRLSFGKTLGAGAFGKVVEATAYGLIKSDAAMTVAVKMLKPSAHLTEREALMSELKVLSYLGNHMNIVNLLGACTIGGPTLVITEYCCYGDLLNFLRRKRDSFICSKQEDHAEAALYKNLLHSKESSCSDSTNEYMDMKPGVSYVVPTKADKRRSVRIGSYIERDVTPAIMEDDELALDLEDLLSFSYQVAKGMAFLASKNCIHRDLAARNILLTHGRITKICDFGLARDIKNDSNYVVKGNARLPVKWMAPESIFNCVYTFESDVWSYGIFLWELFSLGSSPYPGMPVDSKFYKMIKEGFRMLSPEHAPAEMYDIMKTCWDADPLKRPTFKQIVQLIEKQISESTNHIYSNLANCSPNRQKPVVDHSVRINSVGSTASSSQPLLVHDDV
pIC50: −log10 of the molar value.

{"columns": ["compound", "pIC50"],
 "data": [
  ["CCc1nc(-n2nc(C(C)(C)C)[nH]c2=O)ccc1Oc1ccnc(-c2cnn(C)c2)c1 [Example 8]", "< 6.00"],
  ["Cc1nc(-n2nc(C(C)(C)C)[nH]c2=O)ccc1Oc1ccnc(-c2ccnc(N3CCN(C)CC3)c2)c1 [Example 41]", "< 6.00"],
  ["Cc1nc(-n2nc(C3CCCC3)[nH]c2=O)ccc1Oc1ccnc(-c2cnn(C)c2)c1 [Example 34]", "≥ 8.00"],
  ["Cc1nc(-n2nc(CC(C)(C)C)[nH]c2=O)ccc1Oc1ccnc(-c2cnn(C)c2)c1 [Example 36]", "7.00 to 8.00"],
  ["Cc1cc(-n2nc(C(C)(C)C)[nH]c2=O)ncc1Oc1ccnc(-c2cnn(C)c2)c1 [Example 31]", "7.00 to 8.00"],
  ["Cc1nc(-n2cc(C(C)(C)C)[nH]c2=O)ccc1Oc1ccnc(-c2cnn(C)c2)c1 [Example 48]", "< 6.00"],
  ["Cc1nc(-n2nc(C(C)(C)C)[nH]c2=O)ccc1Oc1ccnc(-c2cn(C)cn2)c1 [Example 23]", "< 6.00"],
  ["Cc1nc(-n2nc(C3CCC3)[nH]c2=O)ccc1Oc1ccnc(-c2cnn(C)c2)c1 [Example 37]", "6.00 to 7.00"]
]}
